System: field isolates of Plasmodium vivax
Test: ex vivo parasite growth inhibition assay, field isolates of Plasmodium vivax
Assay type: cell-based
Details: P. vivax field isolates (15 isolates), read-out: Median EC50
measuredProperty: pEC50
Please keep in mind that pEC50 is minus log10 of the molar concentration; only the number is needed.

Look up and report measured pEC50 for this entry: Cc1nn(C)c(NC(=O)Cn2c(C(C)C)nc3ccccc32)c1-c1ccc(Cl)cc1F
8.00

====

System: multidrug-resistant P. falciparum line Dd2
Assay: P. falciparum growth inhibition by 3H-hypoxanthine incorporation
Assay type: cell-based
Conditions: Plasmodium falciparum; P. falciparum Dd2, 48 h exposure, 3H-hypoxanthine incorporation over last 24 h; read-out: EC50 (concentration at which 50% parasite growth inhibition occurs)
Give EC50 for every item shown.
Dear colleague, please return just the value in nM, with no unit written.

Given C[C@@H]1CC[C@H]2[C@@H](C)C(=O)O[C@@H]3O[C@@]4(C)CC[C@@H]1[C@]32OO4 [Artemisinin, reference compound] , respond with its EC50.
12

Supply reported EC50 belonging to this molecule: O=C1C(O)=C([C@H]2CC[C@H](c3ccc(Cl)cc3)CC2)C(=O)c2ccccc21 [Atovaquone, reference compound]
1

Return EC50 (reported value) for this molecule: COc1ccc(-c2c(C(F)(F)F)nn(C)c2NC(=O)Nc2ccc(F)cc2F)cc1 [Reference 1, reference compound]
150

Quick one: give measured EC50 for Cn1nc(C(F)(F)F)c(-c2ccc(Br)cc2)c1NC(=O)Cc1ccccc1F [Reference 2, reference compound]
50

All values here come from patent US9464057B2.
